Biological target: GBA2 (Homo sapiens)
Sequence (Q9HCG7 1-927): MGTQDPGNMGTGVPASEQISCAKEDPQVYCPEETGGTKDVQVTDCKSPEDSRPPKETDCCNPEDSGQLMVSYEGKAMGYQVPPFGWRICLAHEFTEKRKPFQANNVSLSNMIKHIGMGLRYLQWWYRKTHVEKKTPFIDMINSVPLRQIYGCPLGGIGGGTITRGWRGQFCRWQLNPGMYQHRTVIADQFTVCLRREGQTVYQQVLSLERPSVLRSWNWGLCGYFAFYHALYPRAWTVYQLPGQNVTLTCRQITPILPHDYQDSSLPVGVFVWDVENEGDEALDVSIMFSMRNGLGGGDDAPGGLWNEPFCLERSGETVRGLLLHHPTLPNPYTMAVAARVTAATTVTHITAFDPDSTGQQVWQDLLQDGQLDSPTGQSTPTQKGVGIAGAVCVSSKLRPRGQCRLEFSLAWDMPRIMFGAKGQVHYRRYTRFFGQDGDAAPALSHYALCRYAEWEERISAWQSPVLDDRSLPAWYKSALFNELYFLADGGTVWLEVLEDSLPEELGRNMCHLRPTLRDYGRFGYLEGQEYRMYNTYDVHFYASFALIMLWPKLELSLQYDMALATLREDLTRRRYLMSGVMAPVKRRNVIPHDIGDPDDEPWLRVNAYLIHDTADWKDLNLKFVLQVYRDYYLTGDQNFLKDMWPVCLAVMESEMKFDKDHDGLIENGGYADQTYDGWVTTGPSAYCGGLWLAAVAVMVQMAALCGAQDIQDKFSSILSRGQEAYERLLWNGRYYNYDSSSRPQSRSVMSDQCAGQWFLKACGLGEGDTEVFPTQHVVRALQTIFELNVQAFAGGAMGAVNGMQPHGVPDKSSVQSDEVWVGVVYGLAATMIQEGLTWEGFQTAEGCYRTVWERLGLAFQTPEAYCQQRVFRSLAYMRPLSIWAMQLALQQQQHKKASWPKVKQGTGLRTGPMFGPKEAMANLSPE
Assay: Determination of IC50 values for inhibition of GBA2 in cell lysate
Format: biochemical
Set-up: host or cells: HEK293T (lentiviral transduction, puromycin selection); used as cellular homogenate
pIC50: −log10 of the molar value.
OBSERVATION_TYPE: pIC50

Below, 8 compounds whose answers are already recorded.
1) C[C@@H]1[C@@H](O)[C@H](O)[C@@H](O)CN1CCc1ccccc1F: 6.00 to 7.00
2) C[C@@H]1[C@@H](O)[C@H](O)[C@@H](O)CN1CCc1ccc(Cl)cc1F: 6.00 to 7.00
3) CC(C)c1ccc(F)c(CCN2C[C@H](O)[C@@H](O)[C@H](O)[C@H]2C)c1F: > 7.00
4) C[C@@H]1[C@@H](O)[C@H](O)[C@@H](O)CN1CCc1ccc(F)c(F)c1: 6.00 to 7.00
5) C[C@@H]1[C@@H](O)[C@H](O)[C@@H](O)CN1CCc1c(F)cc(C(F)(F)F)cc1F: 6.00 to 7.00
6) C[C@@H]1[C@@H](O)[C@H](O)[C@@H](O)CN1CCc1ccc(OCC2CCOC2)cc1 (some centres unmarked): > 7.00
7) C[C@@H]1[C@@H](O)[C@H](O)[C@@H](O)CN1CCc1c(F)cc(C2CC2)cc1F: > 7.00
8) C[C@@H]1[C@@H](O)[C@H](O)[C@@H](O)CN1CCc1ccc2c(c1)OC(F)(F)O2: > 7.00

[ask] Which pIC50 value belongs to "CC(C)c1cc(F)c(CCN2C[C@H](O)[C@@H](O)[C@H](O)[C@H]2C)c(F)c1" ?
[reply] > 7.00

[ask] Same for "C[C@@H]1[C@@H](O)[C@H](O)[C@@H](O)CN1CCc1cc2c(cc1F)OCO2"
[reply] > 7.00

[ask] Field entry: "C[C@@H]1[C@@H](O)[C@H](O)[C@@H](O)CN1CCc1ccccc1Cl"
[reply] 6.00 to 7.00

[ask] Next record, please: "C[C@@H]1[C@@H](O)[C@H](O)[C@@H](O)CN1CCc1c(F)cc(OCC2CC2)cc1F"
[reply] > 7.00

[ask] Request: "O[C@H]1[C@H](O)[C@@H](O)CN(CCc2ccccc2F)[C@@H]1CF"
[reply] 6.00 to 7.00

[ask] How about "C[C@@H]1[C@@H](O)[C@H](O)[C@@H](O)CN1CCc1cccc(F)c1F" ?
[reply] 6.00 to 7.00

Source of measurements: patent US12612380B2
